- System: VEGF
- Assay Comment: Evaluation of VEGF protein secretion level (Human VEGF ELISA) in ARPE-19 cell medium under hypoxic conditions
- Format: cell-based
- Condition Info: ARPE-19 cells; pretreated 2 hours, 24 hours hypoxic conditions; secreted VEGF in medium supernatant by ELISA; concentration range reducing VEGF by 50% vs untreated control; read-out: IC50 VEGF
- Description: ARPE-19 cells (Human retinal pigment epithelial cells, ATCC CRL-2302) were cultured in DMEM/F12 (LM002-08, Welgene) medium containing 10% fetal bovine serum (FBS, 16000-044, Gibco) in an incubator at 37°C with 5% carbon dioxide. When the cells grew sufficiently, they were cultured in experimental culture dishes for protein isolation and medium supernatant acquisition. Cells were detached from the culture dish using TrypLE™ Express (Gibco). […] The cells were counted and seeded into new culture dishes. […]
Readings of IC50 for the listed molecules
Readout: IC50

O=C(NCc1cc(F)cc(-c2cnn(Cc3cccc(C(F)(F)F)c3)c2)c1)c1ncnc2nc(C3CCCC3)[nH]c12 | 100 to 1000 nM
CN1CCC(Nc2cc(F)cc(CNC(=O)c3ncnc4nc(C5CCCC5)[nH]c34)c2)CC1 | > 10000 nM
[2H]C([2H])([2H])n1cc(Nc2cc(F)cc(CNC(=O)c3ncnc4nc(C5CCC(F)(F)C5)[nH]c34)c2)cn1 (centres unmarked) | 100 to 1000 nM
COc1ccc(Nc2cc(F)cc(CNC(=O)c3ncnc4nc(C5CCCC5)n(C)c34)c2)cc1 | 100 to 1000 nM
O=C(NCc1cc(F)cc(Nc2ccc(Cl)cc2F)c1)c1ncnc2nc(C3CCCC3)[nH]c12 | 100 to 1000 nM
[2H]C([2H])([2H])n1cc(Nc2cc(F)cc(CNC(=O)c3ncnc4nc(C5CCCC5)[nH]c34)c2)cn1 | 100 to 1000 nM
O=C(NCc1cc(F)cc(-c2cnn(-c3ccc(F)cc3)c2)c1)c1nccc2nc(C3CCCC3)[nH]c12 | 100 to 1000 nM
O=C(NCc1cc(F)cc(-c2cnn(-c3cncnc3)c2)c1)c1ncnc2nc(C3CCCC3)[nH]c12 | 100 to 1000 nM
O=C(NCc1cc(F)cc(-c2cnn(C3CCCC3)c2)c1)c1ncnc2nc(C3CCCC3)[nH]c12 | 100 to 1000 nM
Cn1ccc(Nc2cc(F)cc(CNC(=O)c3ncnc4nc(C5CCCC5)[nH]c34)c2)c1 | > 10000 nM
O=C(NCc1cc(F)cc(-c2cnn(-c3ccc(F)cc3)c2)c1)c1ccnc2nc(C3CCCC3)[nH]c12 | > 10000 nM
O=C(NCc1cc(F)cc(-c2cnn(-c3ccc(F)cc3)c2)c1)c1ncnc2nc([C@H]3CCCO3)[nH]c12 | 1000 to 10000 nM
O=C(NCc1cc(F)cc(-c2nnc(-c3ccc(F)cc3)o2)c1)c1ncnc2nc(C3CCCC3)[nH]c12 | > 10000 nM
CC1(C)CC(c2nc3ncnc(C(=O)NCc4cc(F)cc(-c5cnn(-c6ccc(F)cc6)c5)c4)c3[nH]2)C1 | 100 to 1000 nM
O=C(NCc1cc(F)cc(-c2cnn(-c3ccncc3)c2)c1)c1ncnc2nc(C3CCCC3)[nH]c12 | < 100 nM
CN(C)c1ccc(Nc2cc(F)cc(CNC(=O)c3ncnc4nc(C5CCCC5)[nH]c34)c2)cc1 | 100 to 1000 nM
O=C(NCc1cc(F)cc(-c2cnn(-c3ccsc3)c2)c1)c1ncnc2nc(C3CCCC3)[nH]c12 | 100 to 1000 nM
O=C(NCc1cc(F)cc(-n2cc(-c3ccc(F)cc3)nn2)c1)c1ncnc2nc(C3CCCC3)[nH]c12 | > 10000 nM
COC(=O)C(Cc1ccc(-n2cc(-c3cc(F)cc(CNC(=O)c4ncnc5nc(C6CCCC6)[nH]c45)c3)cn2)cc1)NC(=O)c1ncnc2nc(C3CCCC3)[nH]c12 (centres unmarked) | > 10000 nM
N#Cc1ccc(Nc2cc(F)cc(CNC(=O)c3ncnc4nc(C5CCCC5)[nH]c34)c2)cc1 | < 100 nM
O=C(NCc1cc(F)cc(-c2cnn(C3CCCCC3)c2)c1)c1ncnc2nc(C3CCCC3)[nH]c12 | < 100 nM
CS(=O)(=O)c1ccc(Nc2cc(F)cc(CNC(=O)c3ncnc4nc(C5CCCC5)[nH]c34)c2)cc1 | 100 to 1000 nM
O=C(NCc1cc(F)cc(-c2cnn(-c3ccc(C(F)(F)F)nc3)c2)c1)c1ncnc2nc(C3CCCC3)[nH]c12 | 100 to 1000 nM
O=C(NCc1cc(F)cc(NC2CCCC2)c1)c1ncnc2nc(C3CCCC3)[nH]c12 | > 10000 nM
O=C(NCc1cc(F)cc(Nc2ccsc2)c1)c1ncnc2nc(C3CCCC3)[nH]c12 | 100 to 1000 nM
O=C(NCc1cc(F)cc(-c2cnn(-c3ccc(I)cn3)c2)c1)c1ncnc2nc(C3CCCC3)[nH]c12 | 1000 to 10000 nM
O=C(NCc1cc(F)cc(N2CCN(c3ccc(F)cc3)CC2)c1)c1ncnc2nc(C3CCCC3)[nH]c12 | > 10000 nM
O=C(O)c1cccc(-n2cc(-c3cc(F)cc(CNC(=O)c4ncnc5nc(C6CCCC6)[nH]c45)c3)cn2)c1 | 1000 to 10000 nM
O=C(NCc1cc(F)cc(-c2cnn(-c3cccc(F)c3)c2)c1)c1ncnc2nc(C3CCCC3)[nH]c12 | 100 to 1000 nM
